- ASSAY SUMMARY: Phase 1 dose-escalation phase: plasma pharmacokinetics
- Assay type: in vivo, human
- EXPERIMENTAL PARAMETERS: human, plasma, oral, 90 mg, single dose 90 mg (n = 8), mean (SD)
OBSERVED PROPERTY: Tmax (h)
Write the value in h as a bare number.

# return recorded Tmax for entry `COc1cc(N2CCC3(CCN(C)CC3)CC2)ccc1Nc1ncc(Cl)c(Nc2ccccc2P(C)(C)=O)n1`
1.69

###

- Tested on: Ba/F3 ALK-F1174C
- ASSAY SUMMARY: Growth of transfected Ba/F3 cells (CellTiter-Glo, 3 days)
- Assay type: cell-based
- EXPERIMENTAL PARAMETERS: Mus musculus, BaF3, ALK-F1174C, first listing (r10)
OBSERVED PROPERTY: pIC50
pIC50 field: float, defined as -log10 of concentration (mol/L).

State pIC50 on Ba/F3 ALK-F1174C. Entry: COc1cc(N2CCC(N3CCN(C)CC3)CC2)ccc1Nc1ncc(Cl)c(Nc2ccccc2P(C)(C)=O)n1 [Brigatinib]
7.01

###

- ASSAY SUMMARY: in vivo
- EXPERIMENTAL PARAMETERS: male, cynomolgus monkey, po, 50 mg/kg
OBSERVED PROPERTY: Cmax (ng/mL)
Write the value in ng/mL as a bare number.

# return recorded Cmax for entry COc1cc(N2CCC3(CCN(C)CC3)CC2)ccc1Nc1ncc(Cl)c(Nc2ccccc2P(C)(C)=O)n1 [WX-0593]
2180

###

- ASSAY SUMMARY: Phase 1 dose-escalation phase: plasma pharmacokinetics
- Type: in vivo, human
- EXPERIMENTAL PARAMETERS: human, plasma, oral, 180 mg, multiple dosing 180 mg (n = 13), mean (SD)
OBSERVED PROPERTY: Tmax (h)
Write the value in h as a bare number.

# return recorded Tmax for entry `COc1cc(N2CCC3(CCN(C)CC3)CC2)ccc1Nc1ncc(Cl)c(Nc2ccccc2P(C)(C)=O)n1`
2.79

###

- ASSAY SUMMARY: Phase 1 dose-escalation phase: plasma pharmacokinetics
- Format: in vivo, human
- EXPERIMENTAL PARAMETERS: human, plasma, oral, 90 mg, multiple dosing 90 mg (n = 8), mean (SD); read-out: AUC0–24
OBSERVED PROPERTY: AUC(0-t) (ng·h/mL)
Write the value in ng·h/mL as a bare number.

# return recorded AUC(0-t) for entry `COc1cc(N2CCC3(CCN(C)CC3)CC2)ccc1Nc1ncc(Cl)c(Nc2ccccc2P(C)(C)=O)n1`
4390

###

- ASSAY SUMMARY: Phase 1 dose-escalation phase: plasma pharmacokinetics
- Assay type: in vivo, human
- EXPERIMENTAL PARAMETERS: human, plasma, oral; single dose 90 mg (n = 8), mean (SD); read-out: T1/2z (converted)
OBSERVED PROPERTY: half-life (h)
Write the value in h as a bare number.

# return recorded half-life for entry COc1cc(N2CCC3(CCN(C)CC3)CC2)ccc1Nc1ncc(Cl)c(Nc2ccccc2P(C)(C)=O)n1 [WX-0593]
21.9

###

- ASSAY SUMMARY: Phase 1 dose-escalation phase: plasma pharmacokinetics
- Format: in vivo, human
- EXPERIMENTAL PARAMETERS: human, plasma, oral; single dose 300 mg (n = 3), mean (SD)
OBSERVED PROPERTY: AUC(0-inf) (ng·h/mL)
Write the value in ng·h/mL as a bare number.

# return recorded AUC(0-inf) for entry `COc1cc(N2CCC3(CCN(C)CC3)CC2)ccc1Nc1ncc(Cl)c(Nc2ccccc2P(C)(C)=O)n1`
17100

###

- ASSAY SUMMARY: Phase 1 dose-escalation phase: plasma pharmacokinetics
- Format: in vivo, human
- EXPERIMENTAL PARAMETERS: human, plasma, oral, 30 mg, single dose 30 mg (n = 3), mean (SD); read-out: AUC0-t
OBSERVED PROPERTY: AUC(0-t) (ng·h/mL)
Write the value in ng·h/mL as a bare number.

# return recorded AUC(0-t) for entry COc1cc(N2CCC3(CCN(C)CC3)CC2)ccc1Nc1ncc(Cl)c(Nc2ccccc2P(C)(C)=O)n1 [WX-0593]
1310

###

- ASSAY SUMMARY: in vivo
- EXPERIMENTAL PARAMETERS: cynomolgus monkey, po
OBSERVED PROPERTY: MTD (mg/kg)
Write the value in mg/kg as a bare number.

# return recorded MTD for entry COc1cc(N2CCC3(CCN(C)CC3)CC2)ccc1Nc1ncc(Cl)c(Nc2ccccc2P(C)(C)=O)n1 [WX-0593]
50

###

- ASSAY SUMMARY: Phase 1 dose-escalation phase: plasma pharmacokinetics
- Type: in vivo, human
- EXPERIMENTAL PARAMETERS: human, plasma, oral, 90 mg, single dose 90 mg (n = 8), mean (SD); read-out: AUC0-t
- Procedure: Three patients were assigned to each dose level. In the dosing cohort of 30 mg, treatment included a single WX-0593 dose, followed by 7-day PK evaluation period, and subsequent daily oral dosing for continuous 21 days. […] Safety analysis was performed in the SS, which was comprised of all patients treated with one dose of WX-0593 and with safety data recorded. […] The plasma concentration of WX-0593 will be determined using LC-MS.
OBSERVED PROPERTY: AUC(0-t) (µg·h/mL)
Write the value in µg·h/mL as a bare number.

# return recorded AUC(0-t) for entry `COc1cc(N2CCC3(CCN(C)CC3)CC2)ccc1Nc1ncc(Cl)c(Nc2ccccc2P(C)(C)=O)n1`
5.43

###

- ASSAY SUMMARY: Metabolic stability in liver microsomes
- Format: in vitro ADME
- EXPERIMENTAL PARAMETERS: Sprague-Dawley, rat; SD rats liver microsomes; read-out: elimination half-life
OBSERVED PROPERTY: half-life

# return recorded half-life for entry `COc1cc(N2CCC3(CCN(C)CC3)CC2)ccc1Nc1ncc(Cl)c(Nc2ccccc2P(C)(C)=O)n1`
> 2.42 h

###

- ASSAY SUMMARY: Phase 1 dose-escalation phase: plasma pharmacokinetics
- Type: in vivo, human
- EXPERIMENTAL PARAMETERS: human, plasma, oral, 240 mg, multiple dosing 240 mg (n = 12), mean (SD); read-out: AUC0–24
OBSERVED PROPERTY: AUC(0-t) (ng·h/mL)
Write the value in ng·h/mL as a bare number.

# return recorded AUC(0-t) for entry COc1cc(N2CCC3(CCN(C)CC3)CC2)ccc1Nc1ncc(Cl)c(Nc2ccccc2P(C)(C)=O)n1 [WX-0593]
12700

###

- ASSAY SUMMARY: Phase 1 dose-escalation phase: plasma pharmacokinetics
- Format: in vivo, human
- EXPERIMENTAL PARAMETERS: human, plasma, oral; single dose 240 mg (n = 10), mean (SD)
OBSERVED PROPERTY: AUC(0-inf) (ng·h/mL)
Write the value in ng·h/mL as a bare number.

# return recorded AUC(0-inf) for entry `COc1cc(N2CCC3(CCN(C)CC3)CC2)ccc1Nc1ncc(Cl)c(Nc2ccccc2P(C)(C)=O)n1`
16900

###

- ASSAY SUMMARY: Phase 1 dose-escalation phase: plasma pharmacokinetics
- Format: in vivo, human
- EXPERIMENTAL PARAMETERS: human, plasma, oral, 60 mg, multiple dosing 60 mg (n = 3), mean (SD); read-out: AUC0–24
OBSERVED PROPERTY: AUC(0-t) (ng·h/mL)
Write the value in ng·h/mL as a bare number.

# return recorded AUC(0-t) for entry `COc1cc(N2CCC3(CCN(C)CC3)CC2)ccc1Nc1ncc(Cl)c(Nc2ccccc2P(C)(C)=O)n1`
4960

###

- ASSAY SUMMARY: Phase 1 dose-escalation phase: plasma pharmacokinetics
- Assay type: in vivo, human
- EXPERIMENTAL PARAMETERS: human, plasma, oral; single dose 60 mg (n = 3), mean (SD)
OBSERVED PROPERTY: AUC(0-inf) (ng·h/mL)
Write the value in ng·h/mL as a bare number.

# return recorded AUC(0-inf) for entry COc1cc(N2CCC3(CCN(C)CC3)CC2)ccc1Nc1ncc(Cl)c(Nc2ccccc2P(C)(C)=O)n1 [WX-0593]
4060

###

- ASSAY SUMMARY: in vivo
- EXPERIMENTAL PARAMETERS: male, cynomolgus monkey, po, 50 mg/kg
OBSERVED PROPERTY: AUC(0-t) (ng·h/mL)
Write the value in ng·h/mL as a bare number.

# return recorded AUC(0-t) for entry `COc1cc(N2CCC3(CCN(C)CC3)CC2)ccc1Nc1ncc(Cl)c(Nc2ccccc2P(C)(C)=O)n1`
35000

###

- ASSAY SUMMARY: Phase 1 dose-escalation phase: plasma pharmacokinetics
- Assay type: in vivo, human
- EXPERIMENTAL PARAMETERS: human, plasma, oral; single dose 30 mg (n = 3), mean (SD)
- Description: Three patients were assigned to each dose level. In the dosing cohort of 30 mg, treatment included a single WX-0593 dose, followed by 7-day PK evaluation period, and subsequent daily oral dosing for continuous 21 days. […] Safety analysis was performed in the SS, which was comprised of all patients treated with one dose of WX-0593 and with safety data recorded. […] The plasma concentration of WX-0593 will be determined using LC-MS.
OBSERVED PROPERTY: Cmax (ng/mL)
Write the value in ng/mL as a bare number.

# return recorded Cmax for entry COc1cc(N2CCC3(CCN(C)CC3)CC2)ccc1Nc1ncc(Cl)c(Nc2ccccc2P(C)(C)=O)n1 [WX-0593]
105
